Entry source: the supplement of paper PMC10201428

# relative integration efficiency (log2) listing for each entry below
system: VchCAST RNA-guided transposition machinery (E. coli BL21(DE3) host, lacZ target); test: relative integration efficiency (T-RL orientation) vs wild-type transposon end (log2 (normalized fold change)); transposon end mutated: right end (5 bp flank + 75 bp right end); higher = more efficient transposition
Respond numerically, and do not add a unit to the figure.

{"columns": ["query.sequence", "relative integration efficiency (log2)"],
 "data": [
  ["ACATTAGTTGATACAACCATAAAATGATAATTACACCCATAAATTCATCATTATCACACCCAATTTAACTATAACGCTCTGATCATAGTCAGACCAACATTGCTACGACCCGTATTCGCACCGACAC", -7.83]
]}

**Q:** Need relative integration efficiency (log2), item ACATTTGTTGATACAACCATATATTGATATCTCCAACCATAAAGTGATATTTATCAGTGGGTATTTAACTATAACGCTCTGATCATAGTCAGACCAACATTGCTACGACCCGTATTCGCACCGACAC
**A:** -0.927

**Q:** ACATTTGTTGATACAACCATACCATGATAATTACACCCATAAATTGATAATTATCACACCCATAAATTGATATTGCCTCTGATCATAGTCAGACCAACATTGCTACGACCCGTATTCGCACCGACAC , same question.
**A:** -1.34

**Q:** ACATTTGTTGATACAACCATAAAGTGATATTTACAACCATAAAATGATAATTATCACAACCATAAGTTGATATTTTCTCTGATCATAGTCAGACCAACATTGCTACGACCCGTATTCGCACCGACAC , same question.
**A:** 0.113
